# Tested on: lymph nodes (popliteal and iliac)
# APPLIED_CONDITIONS: dog, in vivo
READOUT_TYPE: Rate of clearance and elimination (order, fastest to slowest)

{"MOLECULE": "CCCCOC(=O)SCc1ccc(I)cc1 [S-(p-iodobenzyl)-n-butyl thiolcarbonate]", "ENDPOINT_RESULT": "almost the same"}
{"MOLECULE": "CCCCOC(=O)OCc1ccc(I)cc1 [p-iodobenzyl-n-butyl carbonate]", "ENDPOINT_RESULT": "almost the same"}

====

# Tested on: albino mice
# EXPERIMENTAL_PROTOCOL: Initial toxicity screen: Approximate Lethal Dose by intraperitoneal injection (Deichmann and LeBlanc)
# Type: in vivo
# APPLIED_CONDITIONS: intraperitoneal, albino mice, neat liquid or suspension; footnote (b): largest dose administered (e, f, i, p, q)
# Protocol: As an initial toxicity screen for the compounds shown hereinabove, the neat liquid or suspension of the material was injected into the peritoneal cavity of albino mice and the Approximate Lethal Dose (ALD) determined using the method of Deichmann and LeBlanc (W. B. Deichmann and T. J. LeBlanc, J. Ind. Hyg., 25, 415 (1943)) the results of which are presented in Table II, as set forth hereinafter. Approximate Interperitoneal Toxicity in Mice Approximate Lethal Dose Ml/Kg
The reader will find reported Approximate Lethal Dose (ALD) values listed item by item below.
READOUT_TYPE: Approximate Lethal Dose (ALD) (mL/kg)

{"MOLECULE": "CCCCC(CC)COC(=O)OCc1ccc(I)cc1 (stereo not shown) [g, 2-Ethylhexyl-p-Iodobenzyl Carbonate]", "ENDPOINT_RESULT": 15}
{"MOLECULE": "CCCCCCOC(=O)Oc1ccc(I)cc1 [j, n-Hexyl-p-Iodophenyl Carbonate]", "ENDPOINT_RESULT": 7}
{"MOLECULE": "CC(C)COC(=O)OCc1ccc(I)cc1 [a, p-Iodobenzyl Isobutyl Carbonate]", "ENDPOINT_RESULT": 3}
{"MOLECULE": "CCCCCCOC(=O)OCc1ccc(I)cc1 [c, n-Hexyl-p-Iodobenzyl Carbonate]", "ENDPOINT_RESULT": 7}
{"MOLECULE": "CCCCCCOC(=O)OCCC(C)c1ccc(I)cc1 (stereo not shown) [o, n-Hexyl-3-(p-Iodophenyl)Butyl Carbonate]", "ENDPOINT_RESULT": 7}
{"MOLECULE": "CCCCCCOC(=O)OCCc1ccc(I)cc1 [m, n-Hexyl-p-Iodophenethyl Carbonate]", "ENDPOINT_RESULT": 7}
{"MOLECULE": "CCCCCCOC(=O)OC(C)c1ccc(I)cc1 (stereo not shown) [l, n-Hexyl-p-Iodo-sec-Phenethyl Carbonate]", "ENDPOINT_RESULT": 10.5}
{"MOLECULE": "CCCCCCOC(=O)OCc1cc(I)cc(I)c1 [s, 3,5-Diiodobenzyl-n-Hexyl Carbonate]", "ENDPOINT_RESULT": 5}
{"MOLECULE": "CCCC(CC)OC(=O)OCc1ccc(I)cc1 (stereo not shown) [h, 3-Hexyl-p-Iodobenzyl Carbonate]", "ENDPOINT_RESULT": 3}
{"MOLECULE": "CCCCCCCCOC(=O)OCc1ccc(I)cc1 [e, n-Octyl-p-Iodobenzyl Carbonate]", "ENDPOINT_RESULT": 15}
{"MOLECULE": "COC(=O)OC(C)c1ccc(I)cc1 (stereo not shown) [v, p-Iodo-sec-Phenethyl Methyl Carbonate, reference compound]", "ENDPOINT_RESULT": 1.5}
{"MOLECULE": "CCCCCCOC(=O)OCCCc1ccc(I)cc1 [n, n-Hexyl-3-(p-Iodophenyl)Propyl Carbonate]", "ENDPOINT_RESULT": 15}
{"MOLECULE": "CCCCCCCCCCOC(=O)OCc1ccc(I)cc1 [f, n-Decyl-p-Iodobenzyl Carbonate]", "ENDPOINT_RESULT": 10.5}

====

# Test system: albino mice
# EXPERIMENTAL_PROTOCOL: Initial toxicity screen: Approximate Lethal Dose by intraperitoneal injection (Deichmann and LeBlanc)
# Type: in vivo
# APPLIED_CONDITIONS: intraperitoneal, albino mice, neat liquid or suspension; footnote (b): largest dose administered (e, f, i, p, q)

{"MOLECULE": "CCCCCCOC(=O)OCC(CCCC)Cc1ccc(I)cc1 (stereo not drawn) [q]", "Approximate Lethal Dose (ALD)": "greater than 15 Ml/Kg"}
{"MOLECULE": "CCCCCCOC(=O)OCC(CC)Cc1ccc(I)cc1 (stereo not drawn) [p, n-Hexyl-2-(p-Iodobenzyl)Butyl Carbonate]", "Approximate Lethal Dose (ALD)": "greater than 15 Ml/Kg"}
